# System: α7 integrin promoter
# assay_comment: muscle cell-based assay: α7βgal+/− myoblasts/myotubes, LacZ reporter, β-galactosidase cleavage of FDG
# Set-up: species or system mouse
# particulars: Myotubes; compound at 1 uM
measured_endpoint: Results in a α7+/− β-galactosidase assay, Myotubes, 1 uM
I only need the number, thanks.

Query string: Name the recorded Results in a α7+/− β-galactosidase assay, Myotubes, 1 uM of the molecule listed here: Cc1ccc(/C=C2\C(=O)Nc3ccccc32)o1 [drawing 356]
Result string: −0.02249

Query string: Name the recorded Results in a α7+/− β-galactosidase assay, Myotubes, 1 uM of the molecule listed here: CCOC(=O)c1cc(C(=O)OCC)c(SCc2ccccc2)nc1O [drawing 416]
Result string: −0.06589

Query string: Name the recorded Results in a α7+/− β-galactosidase assay, Myotubes, 1 uM of the molecule listed here: CCc1nc2ccccc2c(C(=O)NCc2ccccc2)c1C [drawing 461]
Result string: −0.1627

Query string: Name the recorded Results in a α7+/− β-galactosidase assay, Myotubes, 1 uM of the molecule listed here: CC(C(=O)Nc1ccc(C#N)cc1)N(C)CC(=O)Nc1cccc(F)c1 (stereo not drawn) [drawing 422]
Result string: −0.1638

Query string: Name the recorded Results in a α7+/− β-galactosidase assay, Myotubes, 1 uM of the molecule listed here: CC(=O)Nc1ccc(-n2c(C)nc(=O)c(-c3ccccc3)c2C)cc1 [drawing 460]
Result string: −0.1764

Query string: Name the recorded Results in a α7+/− β-galactosidase assay, Myotubes, 1 uM of the molecule listed here: COCCSc1ccccc1C(=O)Nc1cc(C)cc(C)c1 [drawing 387]
Result string: 0.09331

Query string: Name the recorded Results in a α7+/− β-galactosidase assay, Myotubes, 1 uM of the molecule listed here: COc1ccc2c(c1)C(=C(C#N)C#N)C(=O)N2CCc1ccccc1 [drawing 314]
Result string: 0.1052

Query string: Name the recorded Results in a α7+/− β-galactosidase assay, Myotubes, 1 uM of the molecule listed here: NC(=O)c1sc2nc3c(cc2c1N)CCC3 [drawing 400]
Result string: −0.1307

Query string: Name the recorded Results in a α7+/− β-galactosidase assay, Myotubes, 1 uM of the molecule listed here: CCOC(=O)C1CCCN(C(=O)CNS(=O)(=O)c2ccc(Br)s2)C1 (stereo not drawn) [drawing 500]
Result string: 0.05901

Query string: Name the recorded Results in a α7+/− β-galactosidase assay, Myotubes, 1 uM of the molecule listed here: Cc1cc(C)cc(OCC(=O)N/N=C/c2ccccn2)c1 [drawing 339]
Result string: 0.1393

Query string: Name the recorded Results in a α7+/− β-galactosidase assay, Myotubes, 1 uM of the molecule listed here: Cc1ccc(Cn2nnc3c(O)nc(C4CCCN(C(=O)c5ccco5)C4)nc32)cc1 (stereo not drawn) [drawing 475]
Result string: −0.1614

Query string: Name the recorded Results in a α7+/− β-galactosidase assay, Myotubes, 1 uM of the molecule listed here: CC(NC(=O)c1ccc(C(C)(C)C)cc1)C(c1cccs1)N1CCOCC1 (stereo not drawn) [drawing 402]
Result string: 0.07635

Query string: Name the recorded Results in a α7+/− β-galactosidase assay, Myotubes, 1 uM of the molecule listed here: Cc1ccc2c(c1)/C(=C/c1ccccc1C)C(=O)N2 [drawing 350]
Result string: −0.0839

Query string: Name the recorded Results in a α7+/− β-galactosidase assay, Myotubes, 1 uM of the molecule listed here: O=C(Nc1ccccc1OC(=O)c1ccc(Cl)cc1)c1ccc(Cl)cc1 [drawing 401]
Result string: 0.02857

Query string: Name the recorded Results in a α7+/− β-galactosidase assay, Myotubes, 1 uM of the molecule listed here: c1ccc(-c2cc(-c3nc4ccccc4[nH]3)c3ccccc3n2)cc1 [drawing 432]
Result string: −0.05419

Query string: Name the recorded Results in a α7+/− β-galactosidase assay, Myotubes, 1 uM of the molecule listed here: CCCC(=O)OCC(=O)c1[nH]c(C)c(C(C)=O)c1C [drawing 496]
Result string: −0.0136

Query string: Name the recorded Results in a α7+/− β-galactosidase assay, Myotubes, 1 uM of the molecule listed here: Cc1cccc(NCC(=O)N/N=C/c2ccccn2)c1 [drawing 483]
Result string: −0.04251

Query string: Name the recorded Results in a α7+/− β-galactosidase assay, Myotubes, 1 uM of the molecule listed here: O=C(CNC(=O)c1cccc(F)c1)N/N=C/c1cc(Br)ccc1OCc1ccccc1 [drawing 311]
Result string: 0.1201
